# Protocol: CHI Log D procedure
# Assay type: physicochemical
# Measurement Conditions: pH 7.4, CHI Log D
Measured Endpoint: chromatographic logD

Sample records with chromatographic logD:
Request: # input molecule: COc1cccc(C[C@H](NC(=O)[C@]23CCN(C2)C(=O)OCC=CCCCCCC[C@@](C)(NC(=O)[C@H](C)NC(=O)[C@H](CC(=O)O)NC(=O)[C@H](Cc2ccccc2)NC(C)=O)C(=O)N[C@@H](CC(=O)O)C(=O)N[C@@H](CC(=O)O)C(=O)N[C@@H](C)C(=O)N[C@@H](C)C(=O)N[C@@H](Cc2ccccc2)C(=O)N[C@@H](C(C)C)C(=O)N3)C(=O)N[C@@H](Cc2c[nH]c3ccccc23)C(=O)N[C@@H](CCC(N)=O)C(N)=O)c1 (single isomer, unassigned) ; wanted: its chromatographic logD
Response: 1.33

Request: # input molecule: CC(=O)N1CCC[C@]12CC=CCCCC1(CCCC=CCCCCCC[C@@](C)(C(=O)N[C@@H](Cc3ccccc3)C(=O)N[C@@H](Cc3c[nH]c4ccccc34)C(=O)N[C@@H](CCC(N)=O)C(N)=O)NC(=O)[C@H](C(C)C)NC(=O)[C@H](Cc3ccccc3)NC(=O)[C@H](C)NC(=O)[C@H](C)NC(=O)[C@H](CCC(=O)O)NC(=O)[C@H](Cc3ccccn3)NC1=O)NC(=O)[C@H](C)NC(=O)[C@H](CC(=O)O)NC2=O (stereo partly drawn) ; wanted: its chromatographic logD
Response: 2.98

Now for the molecule whose chromatographic logD we want.
Request: # input molecule: CC[C@H](C)[C@@H]1NC(=O)[C@H](CC(=O)O)NC(=O)[C@]2(CC=CCCCC3(CCCC=CCCCCCC[C@@](C)(C(=O)N[C@@H](Cc4ccccc4)C(=O)N[C@@H](Cc4csc5ccccc45)C(=O)N[C@@H](Cc4c[nH]cn4)C(N)=O)NC(=O)[C@H](CCC(N)=O)NC(=O)[C@H](Cc4cccs4)NC(=O)[C@H](C)NC(=O)[C@H](C)NC(=O)[C@H](CC(=O)O)NC(=O)[C@H](CC(=O)O)NC3=O)NC1=O)CCCN2C(C)=O (stereo partly drawn) ; wanted: its chromatographic logD
Response: 2.34

###

# System Under Test: full-length beta-Catenin (Uniprot ID P35222) (Homo sapiens, UniProt P35222)
# Construct: 10 nM full-length beta-Catenin (Uniprot ID P35222)
# Sequence (P35222 1-781): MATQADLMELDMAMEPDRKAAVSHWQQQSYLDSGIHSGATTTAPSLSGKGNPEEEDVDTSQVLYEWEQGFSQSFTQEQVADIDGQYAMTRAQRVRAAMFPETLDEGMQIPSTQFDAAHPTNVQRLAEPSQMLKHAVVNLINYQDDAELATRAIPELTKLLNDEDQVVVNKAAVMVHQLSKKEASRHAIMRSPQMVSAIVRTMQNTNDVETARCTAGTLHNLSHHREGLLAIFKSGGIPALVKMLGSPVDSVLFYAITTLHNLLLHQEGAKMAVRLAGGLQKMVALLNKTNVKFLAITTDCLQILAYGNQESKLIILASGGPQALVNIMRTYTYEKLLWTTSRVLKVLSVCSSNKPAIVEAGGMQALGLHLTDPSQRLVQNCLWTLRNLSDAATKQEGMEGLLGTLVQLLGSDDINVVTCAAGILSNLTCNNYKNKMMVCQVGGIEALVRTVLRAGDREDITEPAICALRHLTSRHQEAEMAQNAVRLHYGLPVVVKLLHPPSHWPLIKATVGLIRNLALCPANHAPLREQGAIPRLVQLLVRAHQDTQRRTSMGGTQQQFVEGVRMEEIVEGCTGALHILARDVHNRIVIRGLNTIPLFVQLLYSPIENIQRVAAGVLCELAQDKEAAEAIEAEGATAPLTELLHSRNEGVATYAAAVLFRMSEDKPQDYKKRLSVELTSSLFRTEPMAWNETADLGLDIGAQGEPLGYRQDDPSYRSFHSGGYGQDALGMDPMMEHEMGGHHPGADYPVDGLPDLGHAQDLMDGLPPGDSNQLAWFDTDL
# Protocol: Fluorescence polarization IC50 (beta-catenin / 5FAM-TCF4 10-53 competition)
# Assay type: binding
# Measurement Conditions: fluorescence polarization; read-out: beta-Catenin FP IC50
Measured Endpoint: log10 IC50 (log10 of the value in nM)
Annotation: log10 of IC50, nM basis.

Sample records with log10 IC50:
Request: # input molecule: CC(=O)N1CCC[C@]12CC=CCCCC1(CCCC=CCCCOC(=O)N3CC[C@@](C(=O)N[C@@H](Cc4ccccc4Cl)C(=O)N[C@@H](Cc4csc5ccccc45)C(=O)N[C@@H](CC(C)C)C(N)=O)(C3)NC(=O)[C@H](CCCCNC(C)C)NC(=O)[C@H](Cc3ccccc3)NC(=O)[C@H](C)NC(=O)[C@H](C)NC(=O)[C@H](CC(=O)O)NC(=O)[C@H](CC(=O)O)NC1=O)NC(=O)[C@H](CC(C)(C)C)NC(=O)[C@H](CC(=O)O)NC2=O (stereo partly drawn) [I-1280] ; wanted: its log10 IC50
Response: 1.34

Request: # input molecule: C[C@@H]1NC(=O)[C@H](C)NC(=O)[C@H](CC(=O)O)NC(=O)[C@H](CC(=O)O)NC(=O)C2(CCCC=CCCCCCC[C@@](C)(C(=O)N[C@@H](Cc3ccccc3Cl)C(=O)N[C@@H](Cc3csc4ccccc34)C(=O)N[C@@H](CCC(N)=O)C(N)=O)NC(=O)[C@H]([C@@H](C)O)NC(=O)[C@H](Cc3ccccc3)NC1=O)CCCC=CC[C@]1(CCCN1S(C)(=O)=O)C(=O)N[C@@H](CC(=O)O)C(=O)N[C@@H](CC(C)(C)C)C(=O)N2 (stereo partly drawn) [I-1260] ; wanted: its log10 IC50
Response: 1.36

Request: # input molecule: CC(=O)N1CCC[C@]12CC=CCCCC1(CCCC=CCCCOC(=O)N3CC[C@@](C(=O)N[C@@H](Cc4ccsc4)C(=O)N[C@@H](Cc4csc5ccccc45)C(=O)N[C@@H](Cc4cccc(C(N)=O)c4)C(N)=O)(C3)NC(=O)[C@H](CC(C)C)NC(=O)[C@H](Cc3ccccc3)NC(=O)[C@H](C)NC(=O)[C@H](C)NC(=O)[C@H](CN(CC(=O)O)CC(F)(F)F)NC(=O)[C@H](CC(=O)O)NC1=O)NC(=O)[C@H](CC(C)(C)C)NC(=O)[C@H](CC(=O)O)NC2=O (stereo partly drawn) [I-1708] ; wanted: its log10 IC50
Response: 1.46

Request: # input molecule: CC(=O)N1CCC[C@]12CC=CCCCC1(CCCC=CCCCOC(=O)N3CC[C@@](C(=O)N[C@@H](Cc4ccsc4)C(=O)N[C@@H](Cc4csc5ccccc45)C(=O)N[C@@H](CCC(N)=O)C(N)=O)(C3)NC(=O)[C@H](CC(N)=O)NC(=O)[C@H](Cc3ccccc3)NC(=O)[C@H](C)NC(=O)[C@H](C)NC(=O)[C@H](CC(=O)O)NC(=O)[C@H](CO)NC1=O)NC(=O)[C@H](CC(C)(C)C)NC(=O)[C@H](CC(=O)O)NC2=O (stereo partly drawn) [I-1208] ; wanted: its log10 IC50
Response: 2.54

Request: # input molecule: CC(=O)N1CCC[C@]12CC=CCCCC1(CCCC=CCCCOC(=O)N3CC[C@@](C(=O)N[C@@H](Cc4ccccc4Cl)C(=O)N[C@@H](Cc4csc5ccccc45)C(=O)N[C@H](CO)[C@@H](C)O)(C3)NC(=O)[C@H](CC(C)C)NC(=O)[C@H](Cc3ccccc3)NC(=O)[C@H](C)NC(=O)[C@H](CCCCNC(C)C)NC(=O)[C@H](CC(=O)O)NC(=O)[C@H](CC(=O)O)NC1=O)NC(=O)[C@H](CC(C)(C)C)NC(=O)[C@H](CC(=O)O)NC2=O (stereo partly drawn) [I-1313] ; wanted: its log10 IC50
Response: 1.08

Others:
Request: # input molecule: CC(=O)N1CCC[C@]12CC=CCCCC1(CCCC=CCCCOC(=O)N3CC[C@@](C(=O)N[C@@H](Cc4ccsc4)C(=O)N[C@@H](Cc4csc5ccccc45)C(=O)N[C@@H](CCC(N)=O)C(N)=O)(C3)NC(=O)[C@H](Cc3c[nH]cn3)NC(=O)[C@H](Cc3ccccc3)NC(=O)[C@H](C)NC(=O)C(C)(C)NC(=O)[C@H]([C@@H](C)O)NC(=O)[C@H](CC(N)=O)NC1=O)NC(=O)[C@H](CC(C)(C)C)NC(=O)[C@H](CC(=O)O)NC2=O (stereo partly drawn) [I-2410] ; wanted: its log10 IC50
Response: 2.48

Request: # input molecule: CC(=O)N1CCC[C@]12CCCCCCC1(CCCCCCCCOC(=O)N3CC[C@@](C(=O)N[C@@H](Cc4ccsc4)C(=O)N[C@@H](Cc4csc5ccccc45)C(=O)N[C@H](C(N)=O)C(C)C)(C3)NC(=O)[C@H](CC(C)C)NC(=O)[C@H](Cc3ccccc3)NC(=O)[C@H](C)NC(=O)[C@H](C)NC(=O)[C@H](CN(CC(=O)O)CC(F)(F)F)NC(=O)[C@H](CC(=O)O)NC1=O)NC(=O)[C@H](CC(C)(C)C)NC(=O)[C@H](CC(=O)O)NC2=O (stereo partly drawn) [I-1757] ; wanted: its log10 IC50
Response: 2.65

Request: # input molecule: CCCC[C@@H]1NC(=O)[C@H](CC(=O)O)NC(=O)[C@]2(CC=CCCCC3(CCCC=CCCCCCC[C@@](C)(C(=O)N[C@@H](Cc4ccccc4)C(=O)N[C@@H](Cc4csc5ccccc45)C(=O)N[C@@H](CCC(N)=O)C(N)=O)NC(=O)[C@H](CCO)NC(=O)[C@H](Cc4ccccc4)NC(=O)[C@H](C)NC(=O)[C@H](C)NC(=O)[C@H](CCC(=O)O)NC(=O)[C@H](CC(=O)O)NC3=O)NC1=O)CCCN2C(C)=O (stereo partly drawn) [I-1525] ; wanted: its log10 IC50
Response: 1.34

Request: # input molecule: CC(=O)N1CCC[C@]12CC=CCCCC1(CCCC=CCCCOC(=O)N3CC[C@@](C(=O)N[C@@H](Cc4ccccc4Cl)C(=O)N[C@@H](Cc4csc5ccccc45)C(=O)N[C@H](CO)CC(C)C)(C3)NC(=O)[C@H]([C@@H](C)O)NC(=O)[C@H](Cc3ccccc3)NC(=O)[C@H](C)NC(=O)[C@H](C)NC(=O)[C@H](CN(CC(=O)O)CC(F)(F)F)NC(=O)[C@H](CC(=O)O)NC1=O)NC(=O)[C@H](CC(C)(C)C)NC(=O)[C@H](CC(=O)O)NC2=O (stereo partly drawn) [I-1243] ; wanted: its log10 IC50
Response: 1.91
